- protocol-details: Pharmacokinetic assay: plasma concentration by LC/MS/MS after single intravenous or peroral dose of 3 mg/kg
- Format: in vivo
- assay-setup: 3 mg/kg IV dosing in mice
measurement-label: AUC (ng·h/mL)
Value expressed in ng·h/mL; do not type the unit.

Exercise: Fill in AUC for record NC(=O)c1c(F)ccc(OC(CO)c2nc(-c3ccc(C(F)(F)F)cc3)c(Br)o2)c1F (racemic) [Compound 38]
Key: 6700

Exercise: Let me know recorded AUC for CCOc1cnc2sc(COc3ccc(F)c(C(N)=O)c3F)nc2c1 [E] , thanks.
Key: 200

Exercise: Provide AUC value for the following compound: CCc1oc(COc2ccc(F)c(C(N)=O)c2F)nc1-c1ccc(OC)cc1 [I]
Key: 200

----------
- Tested on: Staphylococcus aureus (Isolate ID ATCC 29213)
- protocol-details: Bacterial assay: MIC by broth microdilution or agar dilution (CLSI), S. aureus ATCC 29213
- Type: cell-based
- assay-setup: Staphylococcus aureus, ATCC29213, read-out: S. aureus MIC (μg/mL) Activity Range, S. aureus (ATCC29213)
- Protocol: Compounds are tested for antimicrobial activity by susceptibility testing in liquid or on solid media. […] Compound MICs were determined to be in the following activity ranges “A” activity≦0.25 μg/mL; “B” activity>0.25 μg/mL-1.0 μg/mL; “C” activity>1.0 μg/mL-16 μg/mL; “D” activity>16 μg/mL and ND=not determined. […]
measurement-label: MIC

Exercise: Answer with reported MIC of NC(=O)c1c(F)ccc(OC(CO)c2nc(-c3cccs3)c(Br)o2)c1F (stereo not shown)
Key: 1 to 16 µg/mL

Exercise: Give the reported value of MIC for this record: NC(=O)c1c(F)ccc(OC(CCC(=O)O)c2nc(-c3ccc(C(F)(F)F)cc3)c(Br)o2)c1F (stereo not shown)
Key: 1 to 16 µg/mL

Exercise: Respond only with MIC recorded for CCC(Oc1ccc(F)c(C(N)=O)c1F)c1nc(-c2ccc(Cl)cc2)c(Br)o1 (stereo not shown)
Key: 1 to 16 µg/mL

Exercise: Fill in MIC for record CC(=O)OCC(Oc1ccc(F)c(C(N)=O)c1F)c1nc(-c2ccc(C(F)(F)F)cc2)c(Cl)o1 (stereo not shown)
Key: 0.25 to 1 µg/mL

Exercise: Look up MIC of NC(=O)c1c(F)ccc(OC(Cn2ccnc2)c2nc(-c3ccc(C(F)(F)F)cc3)c(Br)o2)c1F (stereo not shown) and report it.
Key: 1 to 16 µg/mL

Exercise: Quick one: give measured MIC for NC(=O)c1c(F)ccc(OC(COC(=O)NCc2cccnc2)c2nc(-c3ccc(C(F)(F)F)cc3)c(Br)o2)c1F (stereo not shown)
Key: < 0.25 µg/mL

Exercise: Give the value of MIC reported for the following: COC(=O)NCC(Oc1ccc(F)c(C(N)=O)c1F)c1nc(-c2ccc(C(F)(F)F)cc2)c(Br)o1 (stereo not shown)
Key: 0.25 to 1 µg/mL

----------
Kindly state MIC for each of the entries shown.
- Tested on: Staphylococcus aureus (Isolate ID ATCC 29213)
- protocol-details: Bacterial assay: MIC by broth microdilution or agar dilution (CLSI), S. aureus ATCC 29213
- Format: cell-based
- assay-setup: Staphylococcus aureus, ATCC29213, read-out: S. aureus MIC (μg/mL) Activity Range, S. aureus (ATCC29213)

Exercise: Give the reported value of MIC for this record: C=CCc1oc(C(C)Oc2ccc(F)c(C(N)=O)c2F)nc1-c1ccc(Cl)cc1 (stereo not drawn) [Compound 7]
Key: 0.25 to 1 µg/mL

Exercise: Return MIC (reported value) for this molecule: CS(=O)(=O)NCC(Oc1ccc(F)c(C(N)=O)c1F)c1nc(-c2ccc(C(F)(F)F)cc2)co1 (stereo not drawn) [Compound 284]
Key: > 16 µg/mL

Exercise: Provide one value: measured MIC of NC(=O)c1c(F)ccc(OC(CO)c2nc(-c3ccc(OC(F)(F)F)cc3)c(Br)o2)c1F (stereo not drawn) [Compound 116]
Key: < 0.25 µg/mL

Exercise: Give reported MIC value for C[C@@H](O)[C@@H](Oc1ccc(F)c(C(N)=O)c1F)c1nc(-c2ccc(OC(F)F)cc2)c(Br)o1 [Compound 297]
Key: < 0.25 µg/mL

Exercise: In one line, give reported MIC of the entry C=CCOP(=O)(OCC=C)OCC(Oc1ccc(F)c(C(N)=O)c1F)c1nc(-c2ccc(C(F)(F)F)cc2)c(Br)o1 (stereo not drawn) [Compound 71] .
Key: 0.25 to 1 µg/mL

Exercise: Supply MIC value. Item: CC(Oc1ccc(F)c(C(N)=O)c1F)c1nc(-c2ccc(Cl)cc2)c(Br)o1 (stereo not drawn) [Compound 1]
Key: < 0.25 µg/mL

Exercise: Supply recorded MIC for CC(Oc1ccc(F)c(C(N)=O)c1F)c1nc(-c2ccc(C(F)(F)F)cn2)c(Cl)o1 (stereo not drawn) [Compound 43] here.
Key: 1 to 16 µg/mL

Exercise: Report MIC for NC(=O)c1c(F)ccc(OC(CNC(=O)c2ccccn2)c2nc(-c3ccc(C(F)(F)F)cc3)co2)c1F (stereo not drawn) [Compound 294]
Key: > 16 µg/mL

Exercise: Given the molecule CC(Oc1ccc(F)c(C(N)=O)c1F)c1nc(-c2ccc(C(F)(F)F)cc2)c(Cl)o1 (stereo not drawn) [Compound 32] , write its reported MIC.
Key: 0.25 to 1 µg/mL

Exercise: Answer with reported MIC of CN(C)C(=O)OCC(Oc1ccc(F)c(C(N)=O)c1F)c1nc(-c2ccc(C(F)(F)F)cc2)c(Br)o1 (stereo not drawn) [Compound 107]
Key: < 0.25 µg/mL

Exercise: For the molecule COC(=O)NCC(Oc1ccc(F)c(C(N)=O)c1F)c1nc(-c2ccc(C(F)(F)F)cc2)co1 (stereo not drawn) [Compound 287] , report MIC.
Key: > 16 µg/mL

Exercise: Using the record for Cn1cnc(CNC(=O)OCC(Oc2ccc(F)c(C(N)=O)c2F)c2nc(-c3ccc(C(F)(F)F)cc3)c(Br)o2)c1 (stereo not drawn) [Compound 203] , state its measured MIC.
Key: 0.25 to 1 µg/mL

Exercise: Give MIC for the following molecule: CNCC(=O)OCC(Oc1ccc(F)c(C(N)=O)c1F)c1nc(-c2ccc(Cl)cc2)c(Cl)o1 (stereo not drawn) [Compound 59]
Key: 0.25 to 1 µg/mL

Exercise: Specify measured MIC for NC(=O)c1c(F)ccc(OC(COC(=O)NCc2ccncc2)c2nc(-c3ccc(C(F)(F)F)cc3)c(Br)o2)c1F (stereo not drawn) [Compound 167] .
Key: < 0.25 µg/mL

Exercise: Annotate the molecule NC(=O)c1c(F)ccc(O[C@H](CO)c2nc3cc(Cl)cnc3s2)c1F [Compound 266B] with its measured MIC.
Key: 1 to 16 µg/mL

Exercise: Output MIC of NC(=O)c1c(F)ccc(O[C@H](COCCO)c2nc(-c3ccc(F)cc3F)c(Br)o2)c1F [Compound 265B]
Key: 1 to 16 µg/mL

Exercise: Recall and state the measured MIC for Cn1ccc(CNC(=O)OCC(Oc2ccc(F)c(C(N)=O)c2F)c2nc(-c3ccc(C(F)(F)F)cc3)c(Br)o2)n1 (stereo not drawn) [Compound 193] .
Key: < 0.25 µg/mL

Exercise: Return value of MIC for input CCOC(=O)C(Oc1ccc(F)c(C(N)=O)c1F)c1nc(C2CCOCC2)co1 (stereo not drawn) [Compound 180] , no commentary.
Key: > 16 µg/mL

Exercise: Report MIC for NC(=O)c1c(F)ccc(OC(COC(=O)Cn2cccc2)c2nc(-c3ccc(C(F)(F)F)cc3)c(Br)o2)c1F (stereo not drawn) [Compound 68]
Key: < 0.25 µg/mL

Exercise: For the molecule COCCOc1ccc(-c2nc(C(CO)Oc3ccc(F)c(C(N)=O)c3F)oc2Br)cc1 (stereo not drawn) [Compound 242] , report MIC.
Key: 1 to 16 µg/mL

Exercise: Answer with reported MIC of CCCc1nc(C(CO)Oc2ccc(F)c(C(N)=O)c2F)oc1Br (stereo not drawn) [Compound 221]
Key: 1 to 16 µg/mL

Exercise: Kindly indicate its recorded MIC. Item: COc1cc(Cl)c(Br)cc1-c1nc(C(CO)Oc2ccc(F)c(C(N)=O)c2F)oc1Br (stereo not drawn) [Compound 232]
Key: 1 to 16 µg/mL

Exercise: Quote MIC reported for Cc1nnc(CC(Oc2ccc(F)c(C(N)=O)c2F)c2nc(-c3ccc(C(F)(F)F)cc3)c(Br)o2)o1 (stereo not drawn) [Compound 120] please.
Key: 1 to 16 µg/mL

Exercise: Provide measured MIC value, entry: Cc1cc(Cl)ccc1-c1nc(C(CO)Oc2ccc(F)c(C(N)=O)c2F)oc1Br (stereo not drawn) [Compound 239]
Key: < 0.25 µg/mL

Exercise: Note down MIC recorded for CCOC(=O)CNC(=O)OCC(Oc1ccc(F)c(C(N)=O)c1F)c1nc(-c2ccc(C(F)(F)F)cc2)c(Br)o1 (stereo not drawn) [Compound 140]
Key: 0.25 to 1 µg/mL

Exercise: Return the recorded MIC value; entry: CNC(=O)OCC(Oc1ccc(F)c(C(N)=O)c1F)c1nc(-c2ccc(C(F)(F)F)cc2)c(Br)o1 (stereo not drawn) [Compound 113]
Key: 0.25 to 1 µg/mL

Exercise: Specify measured MIC for NC(=O)c1c(F)ccc(OC(COC(=O)Nc2cccnc2)c2nc(-c3ccc(C(F)(F)F)cc3)c(Br)o2)c1F (stereo not drawn) [Compound 170] .
Key: 0.25 to 1 µg/mL

Exercise: Look up and report measured MIC for this entry: CC(Oc1ccc(F)c(C(N)=O)c1F)c1nc(-c2ccc(OC(F)(F)F)cc2)c(Br)o1 (stereo not drawn) [Compound 16]
Key: 0.25 to 1 µg/mL

Exercise: Specify MIC for NC(=O)c1c(F)ccc(OC(CNC(=O)OCc2ccccc2)c2nc(-c3ccc(C(F)(F)F)cc3)c(Br)o2)c1F (stereo not drawn) [Compound 280] and stop.
Key: 0.25 to 1 µg/mL

Exercise: For the molecule NC(=O)c1c(F)ccc(OC(COC(=O)NCCc2c[nH]cn2)c2nc(-c3ccc(C(F)(F)F)cc3)c(Br)o2)c1F (stereo not drawn) [Compound 162] , report MIC.
Key: 1 to 16 µg/mL
